measured_target: Carboxy-terminal domain RNA polymerase II polypeptide A small phosphatase 1 (Homo sapiens)
Sequence (Q9GZU7 whole entry, the tested form may be a part): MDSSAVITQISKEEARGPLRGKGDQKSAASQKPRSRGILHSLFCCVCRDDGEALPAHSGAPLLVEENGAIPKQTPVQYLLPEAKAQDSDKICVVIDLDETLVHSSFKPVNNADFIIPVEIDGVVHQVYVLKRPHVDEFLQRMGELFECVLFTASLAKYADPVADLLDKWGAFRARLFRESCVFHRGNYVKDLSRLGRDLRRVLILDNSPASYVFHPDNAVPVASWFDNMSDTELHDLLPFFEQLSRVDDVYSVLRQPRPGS
experiment_notes: CTDSP1 inhibitors, concentration-response, biochemical, absorbance readout, ultra-high-throughput screen actives (AID 540297)
Assay type: functional
Activity calls are given as the source filed them.
readout: IC50

Could I get IC50 for every one of these entries?
1. Cc1cc(NC(=O)CSc2sc3c(O)cc(=O)[nH]c3c2C#N)ccc1Br
2. O=c1c2ccccc2nc2sc(Nc3ccc(F)cc3)nn12

1: 3.74 µM (active); 2: 8.04 µM (active)

Could I get IC50 for every one of these entries?
1. COCCn1c(C)cc(C(=O)COC(=O)c2cc3c(s2)CCC3)c1C
2. O=C1C=C(O)c2cccc(O)c2C1=O

1. 7.35 µM (active)
2. 44.5 µM (active)

* * *

measured_target: Cytochrome P450 2C19 (Homo sapiens, UniProt P33261)
Sequence (P33261 whole entry): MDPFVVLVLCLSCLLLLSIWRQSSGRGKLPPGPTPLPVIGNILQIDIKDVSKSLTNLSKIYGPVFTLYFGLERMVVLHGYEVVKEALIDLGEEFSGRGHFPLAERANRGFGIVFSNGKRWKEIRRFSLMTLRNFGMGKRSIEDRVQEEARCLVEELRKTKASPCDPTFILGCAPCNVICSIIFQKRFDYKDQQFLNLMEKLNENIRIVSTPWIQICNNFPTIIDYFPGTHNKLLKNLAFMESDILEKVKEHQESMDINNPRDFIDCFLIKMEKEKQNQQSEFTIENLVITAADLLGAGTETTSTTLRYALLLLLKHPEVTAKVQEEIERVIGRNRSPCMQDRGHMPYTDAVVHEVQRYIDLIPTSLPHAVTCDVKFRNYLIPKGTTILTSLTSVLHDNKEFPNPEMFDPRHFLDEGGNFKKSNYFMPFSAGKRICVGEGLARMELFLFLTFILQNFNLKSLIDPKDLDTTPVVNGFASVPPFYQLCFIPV
experiment_notes: Cytochrome panel assay with activity outcomes. Panel member name: p450-cyp2c19 Compounds with AC50 equal or less than 10 uM are considered active
Type: functional
condition_context: read-out: AC50
readout: AC50

Look over these answered cases.
> print(dat)
                                   molecule                           measured.target  readout                    result
1  Cc1cc(C(F)F)n2nc(C(=O)Nc3sc4c(c3C#N)CCC(C)C4)nc2n1 (configuration not stated)  Cytochrome P450 2C19 (Homo sapiens, UniProt P33261)     AC50    31.6 µM (inconclusive)
2           Cc1noc(C)c1-c1cncnc1NCCN1CCOCC1  Cytochrome P450 2C19 (Homo sapiens, UniProt P33261)     AC50  0.0398 µM (inconclusive)
3                 CCOc1ccccc1NC(=O)CCC(=O)O  Cytochrome P450 2C19 (Homo sapiens, UniProt P33261)     AC50    3.16 µM (inconclusive)
4                      COCCCN1Cc2ccccc2C1=N  Cytochrome P450 2C19 (Homo sapiens, UniProt P33261)     AC50    39.8 µM (inconclusive)
5  O=C(Nc1cccc(F)c1)N1CC2(CCN(S(=O)(=O)c3ccccc3)CC2)C1  Cytochrome P450 2C19 (Homo sapiens, UniProt P33261)     AC50    15.8 µM (inconclusive)

Could I get AC50 for every one of these entries?
1. O=C(NC(=S)Nc1ccc(Br)cn1)c1cncc(Br)c1
2. CCNc1ncc2nc(CCc3ccccc3)c(=O)n(-c3ccc(OC)cc3)c2n1
3. CC(C)c1nc2ccccn2c1NC1CCCCC1
4. N#C/C(=C\c1ccccc1)c1nc2ccc[nH]c-2n1
5. COc1ccc(CC(=O)Nc2ccc(-c3noc(-c4cccc(OC)c4)n3)cc2)cc1
6. C/C(=N\OC(=O)c1ccccc1F)c1nccs1

35.5 µM (inconclusive)
39.8 µM (inconclusive)
22.4 µM (inconclusive)
28.2 µM (inconclusive)
4.47 µM (inconclusive)
35.5 µM (inconclusive)

For the molecule shown here, Cc1ccc(C(=O)NC2CCCCC2)cc1 , give the reported AC50. 25.1 µM (inconclusive)

* * *

Please go through the items and note down their IC50.
measured_target: Glucose-6-phosphate 1-dehydrogenase (Homo sapiens)
Sequence (P11413 whole entry): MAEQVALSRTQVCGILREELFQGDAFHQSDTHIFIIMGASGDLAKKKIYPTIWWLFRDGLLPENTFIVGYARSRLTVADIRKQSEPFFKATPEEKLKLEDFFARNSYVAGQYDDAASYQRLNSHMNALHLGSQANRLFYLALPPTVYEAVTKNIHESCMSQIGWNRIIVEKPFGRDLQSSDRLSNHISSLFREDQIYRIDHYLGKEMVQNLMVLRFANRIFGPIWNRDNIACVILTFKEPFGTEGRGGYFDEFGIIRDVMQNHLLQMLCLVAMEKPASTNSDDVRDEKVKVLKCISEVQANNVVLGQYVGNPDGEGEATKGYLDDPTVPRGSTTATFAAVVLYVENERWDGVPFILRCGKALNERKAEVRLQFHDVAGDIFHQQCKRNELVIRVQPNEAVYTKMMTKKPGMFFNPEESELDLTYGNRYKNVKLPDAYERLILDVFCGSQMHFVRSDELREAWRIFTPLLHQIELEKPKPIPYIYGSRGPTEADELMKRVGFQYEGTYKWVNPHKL
experiment_notes: inhibition of Homo sapiens G6PD, dose series – biochemical, fluorescence, selectivity assay for P. falciparum G6PD inhibitor project, dose response (AID 504792)
Assay type: functional
The source made the active and inactive calls.

> print(dat)
                                   compound              result
1  Cc1ccccc1N/C(SCc1cccc(Br)c1)=C(/C#N)C(N)=O  > 80 µM (inactive)

Could I get IC50 for every one of these entries?
1. COC1(OC)C=CC(=O)C=C1NC(=O)c1ccccc1OC(C)=O
2. CC1CN(c2ccccc2)NC1=O (stereo unspecified)
3. CC(=O)Nc1cc2c(cc1[N+](=O)[O-])-c1ccccc1C2O (stereo unspecified)

> 80 µM (inactive)
41.2 µM (inactive)
> 80 µM (inactive)

Could I get IC50 for every one of these entries?
1. Cc1ccccc1OCC(=O)NCC(=O)OCC(=O)c1ccc([N+](=O)[O-])cc1
2. O=C(Nc1ccccn1)c1sc2cc([N+](=O)[O-])ccc2c1Cl

1: > 80 µM (inactive); 2: > 80 µM (inactive)

* * *

measured_target: Sentrin-specific protease 8 (Homo sapiens);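 further: luminescence read-out of SENP8 inhibition, dose-response confirmation following an ultra-high-throughput screen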
Sequence (Q96LD8 whole entry): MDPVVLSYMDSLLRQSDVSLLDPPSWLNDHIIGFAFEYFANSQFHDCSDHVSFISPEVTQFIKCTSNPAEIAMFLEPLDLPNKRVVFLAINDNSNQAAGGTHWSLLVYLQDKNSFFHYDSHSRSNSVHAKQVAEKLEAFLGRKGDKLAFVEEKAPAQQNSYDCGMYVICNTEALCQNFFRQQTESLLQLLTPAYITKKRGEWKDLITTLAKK
Format: functional
Active and inactive are the calls of the source.
Bench note: report the call from active, inactive

Here's what some known entries look like.
> print(dat)
                                 cpd.smiles  class.name
1  Cc1ccc(NC2=C/C(=N/S(=O)(=O)c3cccs3)c3ccccc3C2=O)cc1      active
2  CCCCn1c(NC(=O)c2ccco2)c(C(=O)OCC)c2nc3ccccc3nc21      active
3  COc1ccc(-c2cc(-c3ccc(C)cc3)[nH]n2)c(O)c1      active
4           Cc1ccccc1/C=C\c1nc(O)c2ccccc2n1      active
5            C/C(=N\OC(=O)c1ccccc1F)c1nccs1      active
6         Cc1cc(C)nc(Nc2nc(-c3ccccc3)cs2)n1      active

Here is another molecule to look at.
How did this test come out for O=C(Nc1ccc(C#Cc2ccccc2)cc1)C1CC1 ? inactive

* * *

measured_target: Replicative DNA helicase DnaB (Mycobacterium tuberculosis)
Sequence (P9WMR3 1-399, added parts left off): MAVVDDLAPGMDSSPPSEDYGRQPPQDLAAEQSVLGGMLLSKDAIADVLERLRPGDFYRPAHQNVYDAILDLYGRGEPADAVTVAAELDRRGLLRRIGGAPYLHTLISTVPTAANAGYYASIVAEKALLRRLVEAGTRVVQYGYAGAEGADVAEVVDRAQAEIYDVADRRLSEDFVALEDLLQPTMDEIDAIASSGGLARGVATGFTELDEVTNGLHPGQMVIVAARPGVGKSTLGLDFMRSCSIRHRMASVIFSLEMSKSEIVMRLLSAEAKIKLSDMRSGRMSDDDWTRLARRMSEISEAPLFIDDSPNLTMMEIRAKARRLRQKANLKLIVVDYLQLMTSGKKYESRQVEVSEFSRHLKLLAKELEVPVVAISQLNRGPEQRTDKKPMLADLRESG
experiment_notes: DnaB intein splicing inhibitors, dose response, biochemical, cell-free fluorescence (AID 449749)
Type: functional
Active and inactive are the calls of the source.
Bench note: report the call from active, inactive

How did this test come out for CC1=NN(c2ccccc2)C(=O)C1/C=C1\C(=O)NC(=O)N(c2ccc(C)c(C)c2)C1=O (centres undefined) ? active

How did this test come out for CC(=O)NCCn1c(SCC(=O)NCc2ccco2)nc2ccccc2c1=O ? active

How did this test come out for COC(=O)[C@@H]1C[C@]2(OC(=O)c3ccccc3)C=CC(=O)C[C@@H]2N1C(=O)OCc1ccccc1 ? active

How did this test come out for O=C1C(Cc2ccccc2)Nc2ncnc(N3CCc4ccccc4C3)c2N1Cc1ccc(Cl)cc1 (centres undefined) ? inactive

* * *

measured_target: Latent membrane protein 1 (Human herpesvirus 4 (strain B95-8), UniProt P03230)
Sequence (P03230 whole entry): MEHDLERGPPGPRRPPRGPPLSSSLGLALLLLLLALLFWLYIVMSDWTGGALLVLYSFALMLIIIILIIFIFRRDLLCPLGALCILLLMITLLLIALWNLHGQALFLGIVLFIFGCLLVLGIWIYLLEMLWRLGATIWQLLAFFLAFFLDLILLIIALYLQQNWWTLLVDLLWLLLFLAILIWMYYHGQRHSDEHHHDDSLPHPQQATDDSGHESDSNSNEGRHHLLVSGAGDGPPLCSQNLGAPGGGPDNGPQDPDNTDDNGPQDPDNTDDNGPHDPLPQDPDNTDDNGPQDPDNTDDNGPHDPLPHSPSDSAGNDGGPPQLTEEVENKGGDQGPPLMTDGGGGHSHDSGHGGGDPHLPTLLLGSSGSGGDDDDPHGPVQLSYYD
experiment_notes: LMP1 TES1 pathway selectivity over dsRED control – imaging, HEK293T, dual-color eGFP/dsRED, cherry-picks, selectivity assay for LMP1 NF-kB inhibitor project, dose response (AID 588398)
Assay type: functional, cell-based
Calls of active or inactive are those of the source.
readout: AC50

Look over these answered cases.
> print(dat)
                                   compound            result
1                      CNc1cccnc1C=NNC(N)=S  6.42 µM (active)
2  COc1cc2c(=O)n(CC3CCCO3)c(=O)n(CC(=O)Nc3cccc(Cl)c3)c2cc1OC (stereo not given)   277 µM (active)
3       O=C1/C(=C/c2cccnc2)SC(=S)N1Cc1ccco1  39.5 µM (active)
4  COc1cc(OC)cc(C(=O)N[C@H](C(=O)OCC(=O)c2ccc(C)c([N+](=O)[O-])c2)C(C)C)c1  42.8 µM (active)

Now turn to the next compound.
For the compound shown here, CN1CCN(/N=C/c2ccc(N(c3ccccc3)c3ccccc3)cc2)CC1 , give the reported AC50. 0.147 µM (active)

* * *

measured_target: High affinity choline transporter 1 (Homo sapiens)
Sequence (Q9GZV3 whole entry): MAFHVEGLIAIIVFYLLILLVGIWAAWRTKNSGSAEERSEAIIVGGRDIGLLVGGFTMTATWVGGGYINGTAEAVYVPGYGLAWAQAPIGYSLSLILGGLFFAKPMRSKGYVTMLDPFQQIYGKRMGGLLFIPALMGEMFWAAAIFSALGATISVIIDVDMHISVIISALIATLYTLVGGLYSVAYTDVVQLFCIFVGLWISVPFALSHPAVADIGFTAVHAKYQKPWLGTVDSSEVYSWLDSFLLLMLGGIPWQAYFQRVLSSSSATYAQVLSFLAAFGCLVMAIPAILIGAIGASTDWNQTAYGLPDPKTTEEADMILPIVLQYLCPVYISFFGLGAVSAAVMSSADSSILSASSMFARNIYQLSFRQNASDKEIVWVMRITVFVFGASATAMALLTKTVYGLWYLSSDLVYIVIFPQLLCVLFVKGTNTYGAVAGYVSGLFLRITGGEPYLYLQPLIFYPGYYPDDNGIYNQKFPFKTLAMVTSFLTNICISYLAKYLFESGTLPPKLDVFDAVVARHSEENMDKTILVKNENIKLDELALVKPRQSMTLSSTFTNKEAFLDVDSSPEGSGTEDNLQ
experiment_notes: human choline transporter blockers, potency – cell-based, 5-point CRC, membrane potential dye, dose response (AID 504840)
Type: functional
Activity calls are given as the source filed them.
readout: IC50

> print(dat)
                                   compound  readout            result
1  CC1CCN(S(=O)(=O)c2ccc3c(c2)N(CC(=O)NCCCN2C(C)CCCC2C)C(=O)CO3)CC1 (stereo not drawn)     IC50  13.5 µM (active)
2        C=CC(=O)/N=c1\sc2ccccc2n1-c1ccccc1     IC50  4.37 µM (active)

What measured IC50 is associated with Cc1ccc(CS(=O)(=O)c2ncc(Cl)c(C(=O)Nc3nnc(C)s3)n2)cc1 on High affinity choline transporter 1 (Homo sapiens)? 4.05 µM (active)

Origin of the recorded values: ChEMBL document CHEMBL1201862
